# Test system: mushroom tyrosinase (polyphenol oxidase) Sigma T3824
# method-description: Testing of polymer production in enzymatic tyrosinase (polyphenol oxidase) reaction
# Type: biochemical
# Design: key: +++: Reacted within about 1 hour; ++: reacted within about 3 hours; +: reacted within about 24 hours; +/−: inconclusive results; −: no reaction
# assay-setup: approx. 50 mM potassium phosphate buffer pH 6.5, approx. 5 mM substrate, 100 to 10,000 units enzyme, observed over 24 hours
value-kind: Result (polymer production in tyrosinase reaction)

Cl.NCCc1ccccc1 [Beta phenylethylamine HCL] : +/−
c1ccc2[nH]ccc2c1 : −
